These data points were gathered from patent US20220378931A1.

Biological target: T1, cynomolgus monkey serum albumin (cynomolgus monkey, UniProt A2V9Z4 25-608)
T1 construct: bought protein, amine-coupled to a CM5 chip; also called Cyno SA
Assay: SPR (Biacore 8K), albumin immobilised, 25 C, 1:1 kinetics
ASSAY ENDPOINT: Kd (nM)
Response body: numeric value in nM, unit text excluded.

Query: I have this binder here, INS Analog 28 (other, single-chain insulin B-L2-A-L1-VHH fusion; also called Ex. 28) FVSQHLCGSHLVEALRLVCGERGFFYTPKTGGGGGGGIVEQCCHSICSLYQLENYCGPGPQPGPQPGPQPGPQPGPQPGPQPGPQPGPQEVQLLESGGGLVQPGGSLRLSCAASGRYIDETAVAWFRQAPGKEREFVAGIGGGVDITYYADSVKGRFTISRDNSKNTLYLQMNSLRPEDTAVYYCAARPGRPLITSKVADLYPYWGQGTLVTVSSPP , and I need its recorded Kd.
Response: 4.1

Query: Now consider INS Analog 29 (other, single-chain insulin B-L2-A-L1-VHH fusion; also called Ex. 29) FVSQHLCGSHLVEALRLVCGERGFHYTPKTGGGGGGGIVEQCCHSICSLYQLENYCGGGGGQGGGGQGGGGQGGGGQGGGGQEVQLLESGGGLVQPGGSLRLSCAASGRYIDETAVAWFRQAPGKEREFVAGIGGGVDITYYADSVKGRFTISRDNSKNTLYLQMNSLRPEDTAVYYCAARPGRPLITSKVADLYPYWGQGTLVTVSSPP and answer again.
Response: 4.4

Query: Now consider INS Analog 24 (other, single-chain insulin B-L2-A-L1-VHH fusion; also called Ex. 24) FVSQHLCGSHLVEALHLVCGERGFHYTPKTGGGGGGGIVEQCCHSICSLEQLENYCGPGPQPGPQPGPQPGPQPGPQPGPQPGPQPGPQEVQLLESGGGLVQPGGSLRLSCAASGRYIDETAVAWFRQAPGKEREFVAGIGGGVDITYYADSVKGRFTISRDNSKNTLYLQMNSLRPEDTAVYYCAARPGRPLITSKVADLYPYWGQGTLVTVSSPP and answer again.
Response: 5.5

Query: Now consider INS Analog 23 (other, single-chain insulin B-L2-A-L1-VHH fusion; also called Ex. 23) FVSQHLCGSHLVEALHLVCGERGFHYTPKTGGGGGGGIVEQCCHSICSLEQLENYCGGGGGQGGGGQGGGGQGGGGQGGGGQEVQLLESGGGLVQPGGSLRLSCAASGRYIDETAVAWFRQAPGKEREFVAGIGGGVDITYYADSVKGRFTISRDNSKNTLYLQMNSLRPEDTAVYYCAARPGRPLITSKVADLYPYWGQGTLVTVSSPP and answer again.
Response: 6.8

Query: Now consider INS Analog 30 (other, single-chain insulin B-L2-A-L1-VHH fusion; also called Ex. 30) FVSQHLCGSHLVEALRLVCGERGFHYTPKTGGGGGGGIVEQCCHSICSLYQLENYCGPGPQPGPQPGPQPGPQPGPQPGPQPGPQPGPQEVQLLESGGGLVQPGGSLRLSCAASGRYIDETAVAWFRQAPGKEREFVAGIGGGVDITYYADSVKGRFTISRDNSKNTLYLQMNSLRPEDTAVYYCAARPGRPLITSKVADLYPYWGQGTLVTVSSPP and answer again.
Response: 4.3
